- Test system: DU-145 prostate
- Experiment Notes: NCI-60 one-dose screen, 48 h (100 = growth as untreated, 0 = no growth, -100 = all killed)
- Run Conditions: 10 µM
- Method: Cells are grown in 96 well plates and exposed to the test compound for 48 hours. Compounds are tested at a single concentration, which is 10^-5 M for most compounds. The reported endpoint is percent growth (GI% or GIPRCNT), where numbers from 0 - 100% represent growth inhibition, and numbers from -100% - 0 represent cell death. For example, a value of 40 represents 60% growth inhibition. A value of 0 means no net growth occurred over the course of the experiment. […]
The panel holds about 83,000 compounds, 20% with a hit somewhere; the sample as a whole holds those more often.
Class met: growth at least 20%. Class not met: growth below 20%.

Ask: Kindly determine if growth recorded for N#Cc1c(-c2ccc(Cl)cc2)cc(-c2cc(O)ccc2O)nc1N is above or exactly 20%.
Reply: met

Ask: Record CC[C@@H](C(=O)[C@@H](C)[C@@H](O)[C@H](C)[C@@H]1O[C@@H]([C@@H](CC)C(=O)N(CC)CC)CC[C@@H]1C)C1O[C@]2(C=CC(=O)[C@]3(CC[C@@](C)([C@H]4CC[C@](O)(CC)[C@H](C)O4)O3)O2)[C@H](C)C[C@@H]1C (stereo not given in full) ; criterion: growth no lower than 20%. Met?
Reply: met

Ask: I'd appreciate it if you could say whether COc1ccc(C(=O)N2C=Cc3ccccc3C2C#N)cc1 (stereo not given) has growth at least equal to 20%.
Reply: met

Ask: Quick check, growth >= 20%? Brc1ccc2c(c1)-c1ccccc1C1=NCCN12
Reply: not met

Ask: Assess whether reported growth for COc1cc2cc(Oc3ccc(NC(=O)Nc4cccc(C(F)(F)F)c4)cc3)c(C)nc2cc1OC sits at 20% or higher.
Reply: met

###

- Test system: CAKI-1 renal
- Experiment Notes: NCI-60 one-dose screen, 48 h (100 = growth as untreated, 0 = no growth, -100 = all killed)
- Run Conditions: 10 µM
This is part of a sample that, as a whole, favours compounds with a hit. Of some 83,000 tested, about 20% had one in any assay.
Quantity Measured: growth (%)
Your answer is read as %, so omit the unit and give the number.

Ask: Param item = COc1ccc(C2=Cn3c(CCC(=O)c4nc5ccccc5[nH]4)nnc3SC2)cc1 ; retrieve measured growth.
Reply: 96.9

Ask: What does the data say about its growth? Entry: Nc1c(Br)cc(Br)c2c1[nH]c(=O)c1ccccc12
Reply: 68.6

Ask: Quick one: growth of COc1ccc(C(=O)N2C=Cc3ccccc3C2C#N)cc1 (stereo unspecified) ?
Reply: 87.3

Ask: Field request: growth | item: COc1ccc(N=Nc2cc(OC)c(OC)c(OC)c2)cc1
Reply: 70.2

Ask: Recorded growth of COc1ccc2cc(-c3nc4ccccc4s3)c(Cl)nc2c1OC , please.
Reply: 94.5

Ask: Any idea what its growth is? The compound is COc1ccc(C(=O)c2ccccc2CN2C(=O)c3ccccc3C2=O)cc1
Reply: 102

###

- Tested on: LOX IMVI melanoma
- Experiment Notes: NCI-60 one-dose screen, 48 h (100 = growth as untreated, 0 = no growth, -100 = all killed)
- Run Conditions: 10 µM
Compounds without any hit were thinned out: in the full panel of roughly 83,000, 20% have a hit.
Friendly reminder: growth below 70% is yes (1), at or above is no (0).

Ask: Is 70% strictly greater than the molecule's reported growth? molecule: CCCCCOC(=O)Nc1nc(=O)n(C2O[C@H](C)[C@@H](O)[C@H]2O)cc1F (stereo not given in full)
Reply: no (0)

Ask: Please let me know if CCOC(=O)C(C)(c1ccccc1)c1ccccc1 shows growth below 70%.
Reply: no (0)

Ask: In the record for Cc1cc(Cl)ccc1Nc1nc(C(F)(F)F)ccc1C(=O)N/N=C/c1cccc(O)c1 , is growth less than 70%?
Reply: yes (1)

Ask: Dear colleague, could you confirm whether growth of COc1cccc(N=Nc2cccc(OC)c2)c1 falls below 70%? Thanks.
Reply: no (0)

Ask: Quick check: does CS(=O)(=O)c1nccc(-c2c(-c3cccc(OCc4ccc(F)cc4)c3)nc3sccn23)n1 have growth under 70%?
Reply: yes (1)

Ask: Given the entry COc1cc(-c2nn(-c3cccc(NC(=O)NCCNC(=O)c4cccc(C(F)(F)F)c4)c3)cc2-c2ccncc2)ccc1Cl , would its reported growth be below 70%?
Reply: yes (1)

Ask: growth under 70%? Item: c1cncc(-c2csc(-c3c[nH]c4ccccc34)n2)c1
Reply: no (0)

Ask: growth strictly < 70% for this molecule? COc1ccc(C2=Cn3c(CCC(=O)c4nc5ccccc5[nH]4)nnc3SC2)cc1
Reply: no (0)

Ask: For this molecule, is growth lower than 70%? Cc1ccc(N=Nc2ccccc2)cc1
Reply: no (0)

// data source = PubChem BioAssay (NCI)
